- method notes: Inhibition of CDK4/cyclin D expressed in baculovirus infected insect Sf21 cells using [gamma-P32]ATP and histone H1 as substrate after 10 mins by radiometric assay
Flag rule - IC50 less than 40 µM flags true; the remaining entries get false.

Asked: Is the reported IC50 for N#Cc1cc2c(N)ncnc2nc1Nc1ccc(S(N)(=O)=O)cc1 strictly below 40 µM?
Given back: true

Asked: Hi there! Is IC50 for Nc1scc2c1c(Nc1ccc(S(N)(=O)=O)cc1)nc1nc(NCCO)nc(N)c12 below 40 µM, do you know?
Given back: false

Asked: Consider the compound Cn1cnc2c(NCc3ccccc3)nc(NCCO)nc21 . Is its IC50 strictly less than 40 µM?
Given back: false

Asked: Dear colleague, could you confirm whether IC50 of Nc1scc2c1c(NCCO)nc1nc(NCCO)nc(N)c12 falls below 40 µM? Thanks.
Given back: false

Asked: IC50 strictly < 40 µM for this compound? N#Cc1cc2c(N)nc(NCCO)nc2nc1Nc1ccc(S(N)(=O)=O)cc1
Given back: false

Asked: Please let me know if Nc1scc2c1c(Nc1ccc(S(N)(=O)=O)cc1)nc1ncnc(N)c12 shows IC50 below 40 µM.
Given back: false

Asked: In the record for Cc1c(C#N)c(NCCO)nc2nc(NCCO)nc(N)c12 , is IC50 less than 40 µM?
Given back: true

Asked: Strictly below 40 µM in IC50? N#Cc1cc2c(N)ncnc2nc1NCCO
Given back: false

----------
- Tested on: SNU-638
- method notes: Growth inhibition of human SNU638 cells after 2 days by SRB assay
- Format: functional
- experimental context: SNU-638, 48 h
Give log10 GI50 for every item shown.
For clarity, the numbers are log10 values of GI50 expressed in µM.

Asked: log10 GI50 for N#Cc1cc2c(N)nc(NCCO)nc2nc1Nc1ccc(S(N)(=O)=O)cc1 ?
Given back: 1.55

Asked: # log10 GI50 lookup, item N#Cc1cc2c(N)ncnc2nc1Nc1ccc(S(N)(=O)=O)cc1
Given back: 0.88

Asked: Requested read-out: log10 GI50. Entry: Cn1cnc2c(NCc3ccccc3)nc(NCCO)nc21
Given back: 1.22

Asked: So what does the record say about log10 GI50 for N#Cc1cc2c(N)nc(NCCO)nc2nc1NCCO ?
Given back: 0.90

Asked: // lookup log10 GI50 for Cc1c(C#N)c(Nc2ccc(S(N)(=O)=O)cc2)nc2nc(NCCO)nc(N)c12
Given back: 1.23

Asked: Fill in: log10 GI50 of Nc1scc2c1c(Nc1ccc(S(N)(=O)=O)cc1)nc1ncnc(N)c12 is ___
Given back: 0.41

Asked: Form field: reported log10 GI50 of Nc1scc2c1c(NCCO)nc1ncnc(N)c12
Given back: 1.26

Asked: Recorded log10 GI50 for Cc1c(C#N)c(Nc2ccc(S(N)(=O)=O)cc2)nc2ncnc(N)c12 , please?
Given back: 0.79

Asked: log10 GI50 for Nc1scc2c1c(NCCO)nc1nc(NCCO)nc(N)c12 ?
Given back: 0.41

Asked: Value lookup for log10 GI50; key = Cc1c(C#N)c(NCCO)nc2ncnc(N)c12
Given back: 0.41

Asked: Which log10 GI50 is listed for N#Cc1cc2c(N)ncnc2nc1NCCO ?
Given back: 1.32

Asked: Looking for the measured log10 GI50 of Cc1c(C#N)c(NCCO)nc2nc(NCCO)nc(N)c12 , can you help?
Given back: 1.26

Asked: Given the compound Nc1scc2c1c(Nc1ccc(S(N)(=O)=O)cc1)nc1nc(NCCO)nc(N)c12 , what is its reported log10 GI50?
Given back: 1.42
